Catalogue of Papp A→B values
assay: Permeability coefficient across apical to basolateral side in human Caco-2 cells at pH 7.4; assay type: ADME, cell-based; conditions: Caco-2, pH 7.4, read-out: permeability
Note: state the figure and append the unit.

{"test smiles": "C[C@@]12CCC[C@H]1[C@@H]1CC[C@@H]3C[C@H](NC(=O)[C@@H](N)CCC(=O)O)CC[C@]3(C)[C@H]1CC2", "Papp A→B": "0.22 ×10⁻⁶ cm/s"}

// next item, Papp A→B requested
What value of measured Papp A→B is listed for C[C@@]12CCC[C@H]1[C@@H]1CC[C@@H]3C[C@H](NC(=O)[C@@H](N)CC(=O)O)CC[C@]3(C)[C@H]1CC2 ?
0.22 ×10⁻⁶ cm/s

---

target: GABA-A receptor; alpha-1/beta-2/gamma-2 (Homo sapiens, UniProt P14867+P18507+P47870); experiment: Positive allosteric modulation of human GABAA alpha1beta2gamma2 receptor expressed in Xenopus laevis oocytes by two-microelectrode voltage-clamp assay
Sequence (P14867 whole entry): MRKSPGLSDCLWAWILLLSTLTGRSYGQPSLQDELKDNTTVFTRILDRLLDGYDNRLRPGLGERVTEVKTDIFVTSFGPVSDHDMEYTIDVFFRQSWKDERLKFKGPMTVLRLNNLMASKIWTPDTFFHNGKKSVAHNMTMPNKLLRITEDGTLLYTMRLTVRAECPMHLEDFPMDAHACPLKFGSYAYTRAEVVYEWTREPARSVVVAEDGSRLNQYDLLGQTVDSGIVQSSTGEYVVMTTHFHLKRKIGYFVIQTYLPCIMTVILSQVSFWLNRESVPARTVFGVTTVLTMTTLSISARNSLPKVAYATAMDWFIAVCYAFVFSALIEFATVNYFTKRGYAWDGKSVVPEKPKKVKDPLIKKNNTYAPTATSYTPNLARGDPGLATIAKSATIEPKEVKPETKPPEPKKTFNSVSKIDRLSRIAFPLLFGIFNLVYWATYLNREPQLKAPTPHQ
Sequence (P47870 whole entry): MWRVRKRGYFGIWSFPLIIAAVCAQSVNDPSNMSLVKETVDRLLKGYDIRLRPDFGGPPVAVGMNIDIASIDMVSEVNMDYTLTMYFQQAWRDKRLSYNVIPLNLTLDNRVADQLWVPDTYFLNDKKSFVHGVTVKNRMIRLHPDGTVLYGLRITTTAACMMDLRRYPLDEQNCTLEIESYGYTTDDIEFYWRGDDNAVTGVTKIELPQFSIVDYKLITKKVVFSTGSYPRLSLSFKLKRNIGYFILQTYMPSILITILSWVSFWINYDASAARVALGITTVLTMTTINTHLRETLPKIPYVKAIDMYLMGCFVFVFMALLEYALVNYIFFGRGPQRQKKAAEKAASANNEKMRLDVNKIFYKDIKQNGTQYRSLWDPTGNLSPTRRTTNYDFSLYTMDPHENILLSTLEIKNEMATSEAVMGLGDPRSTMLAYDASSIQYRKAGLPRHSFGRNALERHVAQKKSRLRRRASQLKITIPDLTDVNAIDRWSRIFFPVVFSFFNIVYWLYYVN
Sequence (P18507 whole entry): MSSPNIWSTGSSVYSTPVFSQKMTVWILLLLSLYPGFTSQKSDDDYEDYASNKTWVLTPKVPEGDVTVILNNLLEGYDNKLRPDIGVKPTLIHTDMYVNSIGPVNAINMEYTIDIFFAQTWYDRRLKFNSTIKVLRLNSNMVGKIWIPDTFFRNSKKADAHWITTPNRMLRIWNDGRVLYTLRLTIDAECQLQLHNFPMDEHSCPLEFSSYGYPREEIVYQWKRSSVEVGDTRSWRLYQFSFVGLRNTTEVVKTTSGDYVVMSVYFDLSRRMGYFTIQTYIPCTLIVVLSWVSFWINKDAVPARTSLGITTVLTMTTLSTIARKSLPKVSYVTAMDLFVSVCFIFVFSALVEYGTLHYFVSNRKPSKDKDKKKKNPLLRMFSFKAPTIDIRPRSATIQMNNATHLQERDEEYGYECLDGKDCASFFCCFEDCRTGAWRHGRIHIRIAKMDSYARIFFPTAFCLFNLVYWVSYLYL
Catalogue of EC50 values
Give the number; µM is assumed, so skip it.

{"test smiles": "CC(=O)[C@H]1CC[C@H]2[C@@H]3CC[C@H]4C[C@](C)(O)CC[C@]4(C)[C@H]3CC[C@]12C", "quantity measured": "EC50", "unit spec": "µM", "result": 0.2}

// next item, EC50 requested
What value of measured EC50 is listed for C[C@@]1(O)CC[C@@]2(C)[C@@H](CC[C@@H]3[C@@H]2CC[C@]2(C)[C@@H](c4cc(CO)on4)CC[C@@H]32)C1 ?
1.2

---

Catalogue of recovery values
assay: Permeability coefficient across apical to basolateral side in human Caco-2 cells assessed as drug recovery at pH 7.4; type: ADME, cell-based; settings: Caco-2, pH 7.4, read-out: Drug recovery

{"test smiles": "C[C@@]12CCC[C@H]1[C@@H]1CC[C@@H]3C[C@H](NC(=O)[C@@H](N)CCC(=O)O)CC[C@]3(C)[C@H]1CC2", "recovery": "< 50%"}

// next item, recovery requested
What value of measured recovery is listed for C[C@@]12CCC[C@H]1[C@@H]1CC[C@@H]3C[C@H](NC(=O)[C@@H](N)CC(=O)O)CC[C@]3(C)[C@H]1CC2 ?
< 50%

---

test: Solubility of the compound in 45% HPbetaCD; assay type: physicochemical
quantity measured: solubility (mM)
Give the number; mM is assumed, so skip it.

{"compound": "C[C@@]1(O)CC[C@@]2(C)[C@@H](CC[C@@H]3[C@@H]2CC[C@]2(C)[C@@H](c4cc(CO)on4)CC[C@@H]32)C1", "quantity measured": "solubility", "unit spec": "mM", "result": 52}

// next item, solubility requested
What value of measured solubility is listed for CC(=O)[C@H]1CC[C@H]2[C@@H]3CC[C@H]4C[C@](C)(O)CC[C@]4(C)[C@H]3CC[C@]12C [GANAXOLONE] ?
20

---

species: Mus musculus; assay: Anticonvulsant activity in 6-Hz induced seizure mouse model assessed as protection against 6-Hz induced seizure; format: functional
Catalogue of ED50 values
Give the number; mg/kg is assumed, so skip it.

{"compound": "CC(=O)[C@H]1CC[C@H]2[C@@H]3CC[C@H]4C[C@](C)(O)CC[C@]4(C)[C@H]3CC[C@]12C [GANAXOLONE]", "result": 1.5}

// next item, ED50 requested
What value of measured ED50 is listed for CC(=O)[C@H]1CC[C@H]2[C@@H]3CC[C@H]4C[C@H](O)CC[C@]4(C)[C@H]3CC[C@]12C [BREXANOLONE] ?
4.2
